All values here come from ChEMBL document CHEMBL1136783.

Listing: IC50 of selected sequences
- Tested on: A2780
- method-summary: Cytotoxicity against human ovarian carcinoma A2780 cell line
- Assay type: functional, cell-based
readout: IC50 (µM)

CISPLATIN    2.3
CARBOPLATIN    8.2

---

Listing: IC50 of selected sequences
- Test system: A2780
- method-summary: Cytotoxicity against human ovarian carcinoma A2780cisR cell line
- Assay type: functional, cell-based
readout: IC50 (µM)

CARBOPLATIN    41.6
CISPLATIN    7.8
